- target: FGFR3 (SEQ ID NO: 5, amino acids 449-759) (Homo sapiens (Human), UniProt P22607)
- Sequence (P22607 449-759): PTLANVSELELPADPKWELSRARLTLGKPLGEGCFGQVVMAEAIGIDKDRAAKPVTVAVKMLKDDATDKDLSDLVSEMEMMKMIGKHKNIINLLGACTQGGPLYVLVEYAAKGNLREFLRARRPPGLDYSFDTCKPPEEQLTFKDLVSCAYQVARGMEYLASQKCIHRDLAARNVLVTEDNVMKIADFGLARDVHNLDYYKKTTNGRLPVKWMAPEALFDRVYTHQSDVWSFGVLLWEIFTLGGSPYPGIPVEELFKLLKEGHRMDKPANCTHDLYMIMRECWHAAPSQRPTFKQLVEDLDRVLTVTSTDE
- test: LC/MS FGFR3 kobs assay (covalent protein modification)
- Type: binding
- condition.summary: 500 nM FGFR3, 3 μM compound
- Method: The LC/MS FGFR1 and FGFR3 kobs assays were conducted as follows. […] At each time point, the reaction was quenched with 20 μL of 0.4% formic acid. The extent of protein modification by each compound was determined by LC/MS on an Agilent Technologies 6520 Q-TOF LC/MS. […] Data analysis included five steps. First, the signals for the “DMSO Controls” were analyzed to determine the percent of signal associated with unmodified FGFR1 or FGFR3 at each time point. […]
readout: FGFR3 Enz kobs (min⁻¹)

Here is how some compounds turned out for FGFR3 Enz kobs.
C=CC(=O)N1CC(CN2CCC(n3ncc(-c4cc(OC)c5c(C#N)cnn5c4)c3C)CC2)(OC)C1 | 0.04322
C=CC(=O)N1CC(C)(C(=O)N2CCC(n3cc(-c4cc(OC)c5c(Cl)cnn5c4)cn3)CC2)C1 | 0.01169
COc1cc(-c2cnn(C3CN(CC4CN(C(=O)/C=C/CN5CCCCC5)C4)C3)c2)cn2ncc(C#N)c12 | 0.00455

A: C=CC(=O)N1CC(F)(C(=O)N2CCC(n3ncc(-c4cc(OC)c5c(C#N)cnn5c4)c3CC)CC2)C1
B: C=CC(=O)N[C@H]1CC[C@H](C(=O)N2CCC(n3cc(-c4cc(OC)c5c(C#N)cnn5c4)cn3)CC2)CC1
Compare the recorded FGFR3 Enz kobs of A and B ; state which is larger. Give the chosen item's label as your response. A
(A: 0.03335 min⁻¹, B: 0.0004 min⁻¹)

P: C=CC(=O)N1CCN(C(=O)N2CCC(n3cc(-c4cc(OC)c5c(C#N)cnn5c4)cn3)CC2)CC1
Q: C=CC(=O)N1CC(C(=O)N2CCC(n3cc(-c4cc(OC)c5c(Cl)cnn5c4)cn3)CC2)C1
Compare the recorded FGFR3 Enz kobs of P and Q ; state which is larger. Give the chosen item's label as your response. Q

====

- target: FGFR3 (SEQ ID NO: 5, amino acids 449-759) (Homo sapiens (Human), UniProt P22607)
- test: LC/MS FGFR3 kobs assay (covalent protein modification)
- Assay type: binding
- condition.summary: 500 nM FGFR3, 3 μM compound
- Method: The LC/MS FGFR1 and FGFR3 kobs assays were conducted as follows. […] At each time point, the reaction was quenched with 20 μL of 0.4% formic acid. The extent of protein modification by each compound was determined by LC/MS on an Agilent Technologies 6520 Q-TOF LC/MS. […] Data analysis included five steps. First, the signals for the “DMSO Controls” were analyzed to determine the percent of signal associated with unmodified FGFR1 or FGFR3 at each time point. […]
readout: FGFR3 Enz kobs (min⁻¹)

C=CC(=O)N[C@H]1C[C@@H](C(=O)N2CCC(n3cc(-c4cc(OC)c5c(C#N)cnn5c4)cn3)CC2)C1 | 0.001

1: C=CC(=O)Nc1ccc(C(=O)N2CC[C@H](n3cc(-c4cc(OC)c5c(C#N)cnn5c4)cn3)C2)cc1
2: C=CC(=O)NC1CCC(NC(=O)c2ccc(-c3cc(OC)c4c(C#N)cnn4c3)cc2)CC1 (centres unmarked)
3: C=CC(=O)N1CC[C@H](C(=O)N2CCC(n3cc(-c4cc(OC)c5c(C#N)cnn5c4)cn3)CC2)C1
4: C=CC(=O)N[C@H]1CC[C@H](C(=O)N2CC[C@H](n3cc(-c4cc(OC)c5c(C#N)cnn5c4)cn3)C2)CC1
Sort the compounds on FGFR3 Enz kobs; start with the lowest figure. // format: requested-order list of labels 4, 2, 3, 1
(4: 0.0002 min⁻¹, 2: 0.00039 min⁻¹, 3: 0.00294 min⁻¹, 1: 0.0223 min⁻¹)

A: C=CC(=O)N1CC(C(=O)N2CCC(n3cc(-c4cc(-c5ccccc5F)c5c(C#N)cnn5c4)cn3)CC2)C1
B: C=CC(=O)N1CC(C(=O)N2CCC(n3cc(-c4cc(OC)c5c(C#N)cnn5c4)cn3)CC2)C1(C)C (centres unmarked)
Compare the recorded FGFR3 Enz kobs of A and B ; state which is larger. Give the chosen item's label as your response. A

P: C=CC(=O)N1CC(CN2CCC(n3ncc(-c4cc(OC)c5c(C#N)cnn5c4)c3C)CC2)C1
Q: COc1cc(-c2cnn(C3CCN(C(=O)C4(OC)CN(C(=O)/C=C/CN(C)C)C4)CC3)c2C)cn2ncc(Cl)c12
// which entry reports the smaller FGFR3 Enz kobs, P or Q ? Give the chosen item's label as your response. P
(P: 0.02499 min⁻¹, Q: 0.0804 min⁻¹)
